meta.source: patent US20260151494A1

experimental_system: apical domain of CD71 (Screen 3: 'cynomolgus apical domain of human CD71') (cynomolgus (as paragraph 454 words it; ambiguous))
procedure_details: primary ELISA
quantity_kind: RLU (RLU)

binder: CD71-binding FN3 domain SEQ ID NO: 310 (designed binder) MSLPAPKNLVVSRVTEDSARLSWTAPDAAFDSFEIDYGEYSQAGEAIGLLVPGSERSYDLTGLKPGTEYAVWIGGVKGGFFSTPLEADFTT
quantity_kind: RLU
recorded_result: 4.83e+06

binder: CD71-binding FN3 domain SEQ ID NO: 269 (designed binder) MSLPAPKNLVVSRVTEDSARLSWTAPDAAFDSFEIGYFENDYFGEAIVLTVPGSERSYDLTGLKPGTEYVVFIGGVKGGNWSAPLSAIFTT
quantity_kind: RLU
recorded_result: 6.01e+06

binder: CD71-binding FN3 domain SEQ ID NO: 243 (designed binder) MSLPAPKNLVVSRVTEDSARLSWTAPDAAFDSFFIGYLEPQPPGEAIHLYVPGSERSYDLTGLKPGTEYNVTIQGVKGGEWSAPLSAIFTT
quantity_kind: RLU
recorded_result: 4.57e+06

binder: CD71-binding FN3 domain SEQ ID NO: 246 (designed binder) MSLPAPKNLVVSRVTEDSARLSWTAPDAAFDSFEIAYQELSLWGEAIVLTVPGSERSYDLTGLKPGTEYYVHIGGVKGGIWSSPLSAYFTT
quantity_kind: RLU
recorded_result: 6.18e+06

binder: CD71-binding FN3 domain SEQ ID NO: 279 (designed binder) MSLPAPKNLVVSRVTEDSARLSWTAPDAAFDSFFIGYLEPQPPGEAIHLYVPGSERSYDLTGLKPGTEYNVTIQGVKGGNWSAPLSAIFTT
quantity_kind: RLU
recorded_result: 5.54e+06

binder: CD71-binding FN3 domain SEQ ID NO: 295 (designed binder) MSLPAPKNLVVSRVTEDSARLSWTAPDAAFDSFFIGYLEPQPPGEAIDLYVPGSERSYDLTGLKPGTEYNVTIQGVKGGFPSEPLVATFTT
quantity_kind: RLU
recorded_result: 6.71e+06

binder: CD71-binding FN3 domain SEQ ID NO: 283 (designed binder) MSLPAPKNLVVSRVTEDSARLSWTAPDAAFDSFEIAYQELSLWGEAIVLTVPGSERSYDLTGLKPGTEYYVHIGGVKGGIWSSPLSAYSTT
quantity_kind: RLU
recorded_result: 6.14e+06

binder: CD71-binding FN3 domain SEQ ID NO: 264 (designed binder) MSLPAPKNLVVSRVTEDSARLSWTAPDAAFDSFFIGYLEPQPPGEAIALYVPGSERSYDLTGLKPGTEYNVTIQGVKGGFPSEPLVVHFTT
quantity_kind: RLU
recorded_result: 6.23e+06

binder: CD71-binding FN3 domain SEQ ID NO: 256 (designed binder) MSLPVPKNLVVSRVTEDSARLSWTAPDAAFDSFEIGYFENLYLGEAIVLTVPGSERSYDLTGLKPGTEYWVQIGGVKGGNWSAPLSAIFTT
quantity_kind: RLU
recorded_result: 4.92e+06
